Listed here are compounds together with their documented melting point.

Consider the reported melting point for these compounds:
Compound: COc1cc2ncnc(Oc3cccc(C(=O)Nc4ccc(Cl)cc4)c3)c2cc1OC [Compound 11b]
Experimental Readout: melting point
Result: 203 to 205 °C
--
Compound: COc1ccc(NC(=O)c2cccc(Oc3ncnc4cc(OC)c(OC)cc34)c2)cc1OC [Compound 11a]
Experimental Readout: melting point
Result: 220 to 222 °C
--
Compound: COc1ccc(NC(=O)c2cccc(Oc3ncnc4sc5c(c34)CCN(C(=O)OC(C)(C)C)C5)c2)cc1OC [Compound 11g]
Experimental Readout: melting point
Result: 103 to 105 °C
--
Compound: CC(C)(C)OC(=O)N1CCc2c(sc3ncnc(Oc4ccc(NC(=O)C5(C(=O)Nc6ccc(F)cc6)CC5)cc4F)c23)C1 [Compound 13h]
Experimental Readout: melting point
Result: 171 to 173 °C
--
Compound: COc1cc2ncnc(Oc3cccc(C(=O)Nc4ccc(F)cc4)c3)c2cc1OC [Compound 11c]
Experimental Readout: melting point
Result: 178 to 180 °C
--
Compound: CNC(=O)c1cc(Oc2ccc(NC(=O)C(C)(C)C(=O)Nc3ccc(F)cc3)cc2)ccn1 [Compound 13d]
Experimental Readout: melting point
Result: 113 to 115 °C
--
Compound: COc1cc2ncnc(Oc3ccc(NC(=O)C(C)(C)C(=O)Nc4ccc(F)cc4)cc3F)c2cc1OC [Compound 13a]
Experimental Readout: melting point
Result: 210 to 212 °C
--
Compound: COc1cc2ncnc(Oc3ccc(NC(=O)C4(C(=O)Nc5ccc(F)cc5)CCC4)cc3F)c2cc1OC [Compound 13c]
Experimental Readout: melting point
Result: 250 to 252 °C

Qu. Value lookup for melting point; key = COc1cc2ncnc(Oc3cccc(C(=O)Nc4cc(C(C)(C)C)nn4-c4ccccc4)c3)c2cc1OC [Compound 9a]
Ans. 217 to 219 °C

Qu. For COc1cc2ncnc(Oc3ccc(NC(=O)C4(C(=O)Nc5ccc(F)cc5)CC4)cc3F)c2cc1OC [Compound 13b] , what is its reported melting point?
Ans. 180 to 182 °C

Qu. Recorded melting point of CC(C)(C)OC(=O)N1CCc2c(sc3ncnc(Oc4ccc(NC(=O)C5(C(=O)Nc6ccc(F)cc6)CCC5)cc4F)c23)C1 [Compound 13i] , please.
Ans. 101 to 103 °C

Qu. Item CC(C)(C)OC(=O)N1CCc2c(sc3ncnc(Oc4ccc(NC(=O)C(C)(C)C(=O)Nc5ccc(F)cc5)cc4F)c23)C1 [Compound 13g] has what recorded melting point?
Ans. 126 to 128 °C
